target: human Gal-1 (hGal-1) (Homo sapiens, UniProt P09382, C131S/C17S/C43S/C61S/C89S); test: Competitive binding assay: biotinylated hGal-1 binding to microplate-adsorbed asialofetuin (ASF); settings: IC50 values from several measurements given as geomean
# maps each entry to its IC50
valueType: IC50

# molecule, measuredOn, obsValue
records = [
    ("CO[C@@H]1[C@@H](n2cc(-c3ccc(F)c(F)c3F)nn2)[C@@H](O)[C@@H](CO)O[C@@H]1Cc1cn([C@]2(C)C[C@@H](O)C2)nn1", "human Gal-1 (hGal-1) (Homo sapiens, UniProt P09382, C131S/C17S/C43S/C61S/C89S)", "140 nM"),
    ("CO[C@@H]1[C@@H](n2cc(-c3ccc(Br)c(F)c3F)nn2)[C@@H](O)[C@@H](CO)O[C@@H]1Cc1cn(C2(C(F)F)CCC2)nn1", "human Gal-1 (hGal-1) (Homo sapiens, UniProt P09382, C131S/C17S/C43S/C61S/C89S)", "960 nM"),
    ("CO[C@@H]1[C@@H](n2cc(-c3ccc(Cl)c(F)c3F)nn2)[C@@H](O)[C@@H](CO)O[C@@H]1Cn1cc(C2(C)CC2)nn1", "human Gal-1 (hGal-1) (Homo sapiens, UniProt P09382, C131S/C17S/C43S/C61S/C89S)", "1710 nM"),
    ("CO[C@@H]1[C@@H](n2cc(-c3ccc(Cl)c(F)c3F)nn2)[C@@H](O)[C@@H](CO)O[C@@H]1Cc1cn(C2COCCC2(F)F)nn1 (single isomer, unassigned) [Example 2.1.73.B]", "human Gal-1 (hGal-1) (Homo sapiens, UniProt P09382, C131S/C17S/C43S/C61S/C89S)", "1200 nM"),
    ("CO[C@@H]1[C@@H](n2cc(-c3ccc(Cl)c(F)c3F)nn2)[C@@H](O)[C@@H](CO)O[C@@H]1Cc1cn(C2(CO)CC2)nn1", "human Gal-1 (hGal-1) (Homo sapiens, UniProt P09382, C131S/C17S/C43S/C61S/C89S)", "3050 nM"),
    ("CO[C@@H]1[C@@H](n2cc(-c3ccc(Cl)c(F)c3F)nn2)[C@@H](O)[C@@H](CO)O[C@@H]1Cn1cc(C2(C(F)F)CC2)nn1", "human Gal-1 (hGal-1) (Homo sapiens, UniProt P09382, C131S/C17S/C43S/C61S/C89S)", "2550 nM"),
]

###

molecular target: human Gal-1 (hGal-1) (Homo sapiens, UniProt P09382, C131S/C17S/C43S/C61S/C89S); assay: Competitive binding assay: biotinylated hGal-1 binding to microplate-adsorbed asialofetuin (ASF); conditions: IC50 values from several measurements given as geomean
pIC50: −log10 of the molar value.
# maps each entry to its pIC50

# compound, measuredOn, pIC50
measured = [
    ("CO[C@@H]1[C@@H](n2cc(-c3ccc(Cl)c(F)c3F)nn2)[C@@H](O)[C@@H](CO)O[C@@H]1Cc1cn(C2(CF)COC2)nn1 [Ex 2.1.52.]", "human Gal-1 (hGal-1) (Homo sapiens, UniProt P09382, C131S/C17S/C43S/C61S/C89S)", 6.19),
    ("CO[C@@H]1[C@@H](n2cc(-c3ccc(C)c(F)c3F)nn2)[C@@H](O)[C@@H](CO)O[C@@H]1Cc1cn(C2CC2C(C)C)nn1 (stereo partly drawn) [Ex 1.1.17.]", "human Gal-1 (hGal-1) (Homo sapiens, UniProt P09382, C131S/C17S/C43S/C61S/C89S)", 5.30),
    ("CO[C@@H]1[C@@H](n2cc(-c3ccc(C)c(F)c3F)nn2)[C@@H](O)[C@@H](CO)O[C@@H]1Cc1cn([C@@H]2CCC[C@H]2O)nn1 [Ex 1.1.2.]", "human Gal-1 (hGal-1) (Homo sapiens, UniProt P09382, C131S/C17S/C43S/C61S/C89S)", 5.19),
    ("CO[C@@H]1[C@@H](n2cc(-c3ccc(Br)c(F)c3F)nn2)[C@@H](O)[C@@H](CO)O[C@@H]1Cc1cn([C@]2(C)C[C@H](O)C2)nn1 [Ex 4.1.19.]", "human Gal-1 (hGal-1) (Homo sapiens, UniProt P09382, C131S/C17S/C43S/C61S/C89S)", 5.74),
    ("CO[C@@H]1[C@@H](n2cc(-c3ccc(Cl)c(F)c3F)nn2)[C@@H](O)[C@@H](CO)O[C@@H]1Cc1cn(C(C)(C)C(F)F)nn1 [Ex 2.1.28.]", "human Gal-1 (hGal-1) (Homo sapiens, UniProt P09382, C131S/C17S/C43S/C61S/C89S)", 6.11),
    ("CO[C@@H]1[C@@H](n2cc(-c3ccc(F)c(F)c3F)nn2)[C@@H](O)[C@@H](CO)O[C@@H]1Cc1cn(C2(C)CC2)nn1 [Ex 3.1.23.]", "human Gal-1 (hGal-1) (Homo sapiens, UniProt P09382, C131S/C17S/C43S/C61S/C89S)", 6.41),
]

###

target: human Gal-1 (hGal-1) (Homo sapiens, UniProt P09382, C131S/C17S/C43S/C61S/C89S); assay: Competitive binding assay: biotinylated hGal-1 binding to microplate-adsorbed asialofetuin (ASF); conditions: IC50 values from several measurements given as geomean
pIC50: −log10 of the molar value.
Mark true for reported pIC50 of 6 or greater; mark false for anything smaller.

# compound, measuredOn, discreteLabel
measured = [
    ("CO[C@@H]1[C@@H](n2cc(-c3ccc(F)c(F)c3F)nn2)[C@@H](O)[C@@H](CO)O[C@@H]1Cn1cc(C23CCC(NC(=O)OC(C)(C)C)(CC2)CC3)nn1", "human Gal-1 (hGal-1) (Homo sapiens, UniProt P09382, C131S/C17S/C43S/C61S/C89S)", "false"),
    ("CO[C@@H]1[C@@H](n2cc(-c3ccc(Cl)c(F)c3F)nn2)[C@@H](O)[C@@H](CO)O[C@@H]1Cc1cn(C2(C(F)F)CCOC2)nn1 (single isomer, unassigned) [Example 2.1.78.B]", "human Gal-1 (hGal-1) (Homo sapiens, UniProt P09382, C131S/C17S/C43S/C61S/C89S)", "true"),
    ("CO[C@@H]1[C@@H](n2cc(-c3ccc(F)c(F)c3F)nn2)[C@@H](O)[C@@H](CO)O[C@@H]1Cc1cn(C2(CF)CCC2)nn1", "human Gal-1 (hGal-1) (Homo sapiens, UniProt P09382, C131S/C17S/C43S/C61S/C89S)", "true"),
    ("CO[C@@H]1[C@@H](n2cc(-c3ccc(Cl)c(F)c3F)nn2)[C@@H](O)[C@@H](CO)O[C@@H]1Cc1cn(C23CC(C(F)(F)F)(C2)C3)nn1", "human Gal-1 (hGal-1) (Homo sapiens, UniProt P09382, C131S/C17S/C43S/C61S/C89S)", "false"),
]

###

pIC50: −log10 of the molar value.
// each record: one item and its pIC50 for human Gal-3 (hGal-3) (Homo sapiens (Human))
valueType: pIC50

# molecule, obsValue
measured = [
    ("CO[C@@H]1[C@@H](n2cc(-c3ccc(F)c(F)c3F)nn2)[C@@H](O)[C@@H](CO)O[C@@H]1Cc1cn(C2(C)COC2)nn1 [Ex 3.1.6.]", 7.30),
    ("CO[C@@H]1[C@@H](n2cc(-c3ccc(Cl)c(F)c3F)nn2)[C@@H](O)[C@@H](CO)O[C@@H]1Cc1cn(C2(C)CC(F)(F)C2)nn1 [Ex 2.1.15.]", 7.30),
    ("CO[C@@H]1[C@@H](n2cc(-c3ccc(Br)c(F)c3F)nn2)[C@@H](O)[C@@H](CO)O[C@@H]1Cc1cn(C2CCC2(F)F)nn1 (stereo partly drawn) [Example 4.1.63.AB]", 7.15),
]

###

# maps each entry to its pIC50
molecular target: human Gal-1 (hGal-1) (Homo sapiens, UniProt P09382, C131S/C17S/C43S/C61S/C89S); assay: Competitive binding assay: biotinylated hGal-1 binding to microplate-adsorbed asialofetuin (ASF); settings: IC50 values from several measurements given as geomean
pIC50: −log10 of the molar value.

# compound, pIC50
measured = [
    ("CO[C@@H]1[C@@H](n2cc(-c3ccc(C)c(F)c3F)nn2)[C@@H](O)[C@@H](CO)O[C@@H]1Cn1cc(C(C)(C)O)nn1", 5.27),
    ("CO[C@@H]1[C@@H](n2cc(-c3ccc(F)c(F)c3F)nn2)[C@@H](O)[C@@H](CO)O[C@@H]1Cc1cn(C2CC3(CC3)C2)nn1", 6.12),
    ("CO[C@@H]1[C@@H](n2cc(-c3ccc(Cl)c(F)c3F)nn2)[C@@H](O)[C@@H](CO)O[C@@H]1Cc1cn(C23CCC(O)(CC2)CC3)nn1", 5.35),
    ("CO[C@@H]1[C@@H](n2cc(-c3ccc(Cl)c(F)c3F)nn2)[C@@H](O)[C@@H](CO)O[C@@H]1Cc1cn(C2(C)CC2)nn1", 5.96),
    ("CO[C@@H]1[C@@H](n2cc(-c3ccc(F)c(F)c3F)nn2)[C@@H](O)[C@@H](CO)O[C@@H]1Cn1cc(C2CCCC2)nn1", 5.94),
    ("CO[C@@H]1[C@@H](n2cc(-c3ccc(Cl)c(F)c3F)nn2)[C@@H](O)[C@@H](CO)O[C@@H]1Cc1cn([C@]2(C)C[C@@H](O)C2)nn1", 6.15),
    ("CO[C@@H]1[C@@H](n2cc(-c3ccc(F)c(F)c3F)nn2)[C@@H](O)[C@@H](CO)O[C@@H]1Cc1cn([C@@H]2CCOC[C@H]2F)nn1 (single isomer, unassigned) [Example 3.1.66.D]", 6.51),
    ("CO[C@@H]1[C@@H](n2cc(-c3ccc(Cl)c(F)c3F)nn2)[C@@H](O)[C@@H](CO)O[C@@H]1Cc1cn(C2CC3(COC3)C2)nn1", 5.23),
    ("COCC1(n2cc(C[C@H]3O[C@H](CO)[C@H](O)[C@H](n4cc(-c5ccc(F)c(F)c5F)nn4)[C@H]3OC)nn2)COC1", 6.11),
    ("CO[C@@H]1[C@@H](n2cc(-c3ccc(C)c(F)c3F)nn2)[C@@H](O)[C@@H](CO)O[C@@H]1Cc1cn(C23CCC(N)(CC2)CC3)nn1", 4.96),
    ("CO[C@@H]1[C@@H](n2cc(-c3ccc(Cl)c(F)c3F)nn2)[C@@H](O)[C@@H](CO)O[C@@H]1Cc1cn(C2(C)CCOC2)nn1 (stereo partly drawn)", 5.74),
    ("CO[C@@H]1[C@@H](n2cc(-c3ccc(Cl)c(F)c3F)nn2)[C@@H](O)[C@@H](CO)O[C@@H]1Cc1cn(C2(CO)CCC2)nn1", 5.60),
]
